- assay.system: NHERF4_4, Q86UT5
- Sequence (Q86UT5 464-550): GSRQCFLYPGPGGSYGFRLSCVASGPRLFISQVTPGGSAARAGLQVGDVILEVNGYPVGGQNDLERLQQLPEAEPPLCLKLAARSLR
- assay.method.text: holdup assay
- Parameters: key: below the threshold = too weak to quantify, mostly under pKd 3.1 to 4
- assay.conditions: plain residues with an end cap or a label only (N-terminal biotin on a linker: ado-ado)
quantity.kind: pKd

Worked examples, 4 binders total:
VCMGDHWFDV [PRKN, O60260]
4.3
DLLGGGSDSI [TNRC6B, Q9UPQ9]
below the threshold
GNDPDRGTSI [GRID2, O43424]
below the threshold
QKNKDREYYV [NRXN3, Q9HDB5]
below the threshold

Per the record, PGKKPEDSRV [SLCO2B1, O94956] has pKd of below the threshold

The binder listed as AKADAQESRL [PLCB2, Q00722] has a reported pKd of below the threshold

STYCDYTIEI [FAM71C, Q8NEG0] yielded pKd of 4.68

Provenance of the data: paper PMC9482650
